Target: Tyrosine-protein phosphatase non-receptor type 2 (Homo sapiens, UniProt P17706)
Sequence (P17706 whole entry): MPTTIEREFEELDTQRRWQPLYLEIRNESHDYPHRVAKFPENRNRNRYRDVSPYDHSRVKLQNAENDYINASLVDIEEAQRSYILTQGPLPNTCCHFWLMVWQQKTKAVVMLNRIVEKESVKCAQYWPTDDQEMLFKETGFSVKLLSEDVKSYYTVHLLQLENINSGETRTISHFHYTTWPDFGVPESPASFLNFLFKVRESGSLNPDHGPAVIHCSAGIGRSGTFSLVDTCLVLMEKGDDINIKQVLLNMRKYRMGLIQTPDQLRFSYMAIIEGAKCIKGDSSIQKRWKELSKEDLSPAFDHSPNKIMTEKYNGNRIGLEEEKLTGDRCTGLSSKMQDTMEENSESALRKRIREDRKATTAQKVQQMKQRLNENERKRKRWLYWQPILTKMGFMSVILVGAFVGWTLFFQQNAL
measuredQuantity: pIC50
Numbers only, as −log10 of the molar value.

>  <smilesEntry>
O=S(=O)(Nc1ccc(-c2nc3ccccc3o2)cc1)c1ccccc1F

>  <pIC50>
4.10

$$$$
>  <smilesEntry>
O=S(=O)(Nc1ccc(-c2nc3cc(NS(=O)(=O)c4ccc(Cl)s4)ccc3o2)cc1)c1ccccc1

>  <pIC50>
4.54

$$$$
>  <smilesEntry>
O=S(=O)(Nc1ccc(-c2nc3cc(NS(=O)(=O)c4cccc(O)c4)ccc3o2)cc1)c1cccc(O)c1

>  <pIC50>
4.08

$$$$

For every record below, what is its pIC50?
1. Cc1ccc(S(=O)(=O)Nc2ccc(-c3nc4ccccc4o3)cc2)cc1
2. CCc1ccc(S(=O)(=O)Nc2ccc(-c3nc4cc(NS(=O)(=O)c5ccc(Cl)s5)ccc4o3)cc2)cc1
3. O=S(=O)(Nc1ccc(-c2nc3cc(NS(=O)(=O)c4ccc(Cl)s4)ccc3o2)cc1)c1ccc(F)c(C(F)(F)F)c1

Reply text:
1. 4.31
2. 4.92
3. 5.07
